Data origin: patent US11912723B2

Here, each record is paired with measured pIC50 data.
# System: GST-tagged KRAS G12D (2-169) (Homo sapiens, UniProt P01116, G12D)
# Construct: GST-tagged KRAS^G12D (2-169, Reaction Biology, MSC-11-539); MSC-11-502 (SOS1cat)
# Sequence (P01116 2-169 isoform P01116-2 G12D): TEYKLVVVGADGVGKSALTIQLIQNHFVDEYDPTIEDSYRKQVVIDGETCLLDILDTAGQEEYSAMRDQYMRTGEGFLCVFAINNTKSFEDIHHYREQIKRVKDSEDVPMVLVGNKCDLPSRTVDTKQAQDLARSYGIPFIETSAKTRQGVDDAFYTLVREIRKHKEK
# Assay Summary: Nucleotide exchange assay (NEA), HTRF of SOS-mediated GTP-DY-647P1 binding
# Condition Details: 5 nM GST-KRAS G12D, 20 nM SOScat, 150 nM GTP; compound 1 h at RT
pIC50: −log10 of the molar value.
Reported Property: pIC50

molecule="CN(C)C(=O)c1nn2c(c1Cl)CN(c1nc(OC[C@@]34CCCN3C[C@H](F)C4)nc3c1CN(C)[C@@]1(CCc4ccccc41)C3)CCC2 [Compound 53]" reported_property=pIC50 result="> 8.00"
molecule="Oc1ccc2c(c1)C1(CCC2)Cc2nc(OC[C@@]34CCCN3C[C@H](F)C4)nc(N3CCCCCC3)c2CO1 (single isomer, unassigned) [Compound 8]" reported_property=pIC50 result="6.00 to 7.00"
molecule="C[C@@]1(O)CCCN(c2nc(OC[C@@]34CCCN3C[C@H](F)C4)nc3c2COC2(CCc4c(Cl)cccc42)C3)C1 (single isomer, unassigned) [Compound 23A]" reported_property=pIC50 result="6.00 to 7.00"
molecule="CN1Cc2c(nc(OC[C@@]34CCCN3C[C@H](F)C4)nc2N2CCCn3nc(-c4nc5ccccc5n4C)cc3C2)C[C@]12CCCc1ccccc12 [Compound 82]" reported_property=pIC50 result="7.00 to 8.00"
molecule="O=C1NC(=O)C2(CCCN(c3nc(OC[C@@]45CCCN4C[C@H](F)C5)nc4c3COC3(CCc5ccc(O)cc53)C4)C2)N1 (mixture of isomers) [Compound 30]" reported_property=pIC50 result="4.70 to 6.00"
molecule="CN(C)C(=O)c1cc2n(n1)CCCN(c1nc(OC[C@@]34CCCN3C[C@H](F)C4)nc3c1COC1(CCc4c(OC(F)F)cccc41)C3)C2 (mixture of isomers) [Compound 48]" reported_property=pIC50 result="4.70 to 6.00"
